For each of the compounds below, state its log fold change Tl+ flux.
# targetOrSystem: Calcium-activated potassium channel subunit alpha-1 (Homo sapiens) + Leucine-rich repeat-containing protein 26 (Homo sapiens) (UniProt Q12791+Q2I0M4)
# Sequence (Q2I0M4 whole entry, looked up, one chain of several): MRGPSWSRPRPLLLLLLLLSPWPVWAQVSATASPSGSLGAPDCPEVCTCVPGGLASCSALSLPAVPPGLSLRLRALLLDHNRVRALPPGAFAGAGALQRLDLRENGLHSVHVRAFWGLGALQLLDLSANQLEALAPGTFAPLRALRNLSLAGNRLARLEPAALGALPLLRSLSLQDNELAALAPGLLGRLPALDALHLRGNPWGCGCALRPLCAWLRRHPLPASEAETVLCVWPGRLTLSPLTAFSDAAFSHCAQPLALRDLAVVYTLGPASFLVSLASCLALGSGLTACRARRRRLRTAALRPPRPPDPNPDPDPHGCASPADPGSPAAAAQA
# testMethodNotes: modulators of BK channel variants, profiling panel, selectivity assay, cell-based, U2OS BacMam, thallium flux, beta subunits (AID 1259406);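 also: initial slope of Thallos dye fluorescence rise after thallium is added; log ratio against the mean of 0.3% DMSO vehicle wells on the same plate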
# setupConditions: F380Y/Slo1WT/gamma1, at 30 µM
Write no unit; give the number alone.

Entry NC(=NNC(=O)c1cccnc1)c1ccncc1 needs its log fold change Tl+ flux filled in; supply it.
-0.00474

Entry O=C(NNC(=O)c1ccc2nonc2c1)c1cccc(C(F)(F)F)c1 needs its log fold change Tl+ flux filled in; supply it.
-0.0024

Entry CN1[C@@H]2CCC[C@H]1CC(NC(=O)c1nn(C)c3ccccc13)C2 (stereo partly specified) needs its log fold change Tl+ flux filled in; supply it.
0.00528

Entry CSc1nnc(SCC(=O)c2ccc3c(c2)OCCO3)s1 needs its log fold change Tl+ flux filled in; supply it.
-0.0346

Entry O=S(=O)(Cc1nc(C=Cc2cc(C(F)(F)F)cc(C(F)(F)F)c2)no1)c1ccc(Cl)cc1 needs its log fold change Tl+ flux filled in; supply it.
0.00425

Entry Cc1nn(C)c(NCc2cccs2)c1[N+](=O)[O-] needs its log fold change Tl+ flux filled in; supply it.
0.0148

Entry Cn1c(C(=O)O)ccc1S(=O)(=O)N(Cc1ccccc1)Cc1ccccc1 needs its log fold change Tl+ flux filled in; supply it.
0.000486

Entry CN/C(=C\[N+](=O)[O-])NCCSCc1csc(CN(C)C)n1 needs its log fold change Tl+ flux filled in; supply it.
-0.0126

Entry NC(=O)CN1C(=O)C(=Cc2ccco2)N=C1c1ccccc1 needs its log fold change Tl+ flux filled in; supply it.
-0.015

Entry NCC(O)c1ccc(O)c(O)c1 (stereo unspecified) needs its log fold change Tl+ flux filled in; supply it.
0.0514

Entry CC(=O)OCC(=O)C1(O)C(C)CC2C3CCC4CC(=O)C=CC4(C)C3C(O)CC21C (stereo unspecified) needs its log fold change Tl+ flux filled in; supply it.
-0.00155

----------
# System: R275C/beta2Delta
# testMethodNotes: modulators of BK channel variants, profiling panel, selectivity assay, cell-based, U2OS BacMam, thallium flux, beta subunits (AID 1259406);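 also: initial slope of Thallos dye fluorescence rise after thallium is added; log ratio against the mean of 0.3% DMSO vehicle wells on the same plate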
# setupConditions: at 30 µM
For each of the molecules below, state its log fold change Tl+ flux.
Write no unit; give the number alone.

Entry O=C(O)COCCN1CCN([C@H](c2ccccc2)c2ccc(Cl)cc2)CC1 needs its log fold change Tl+ flux filled in; supply it.
0.083

Entry CC(C)OC(=O)CCC/C=C\C[C@@H]1[C@@H](CC[C@@H](O)CCc2ccccc2)[C@H](O)C[C@@H]1O needs its log fold change Tl+ flux filled in; supply it.
0.262

Entry CC(=O)Nc1ccc(OCC(=O)N2CCN(c3ncc(C(F)(F)F)cc3Cl)CC2)cc1 needs its log fold change Tl+ flux filled in; supply it.
0.0353

Entry FC(F)(F)c1cc(C=Cc2noc(-c3ccc(CN4CCCC4)cc3)n2)cc(C(F)(F)F)c1 needs its log fold change Tl+ flux filled in; supply it.
-0.0502

Entry CCOC(=O)C1CCCN(C(=O)Nc2c(-c3ccccc3)noc2C)C1 (stereo not given) needs its log fold change Tl+ flux filled in; supply it.
-0.0161

Entry NS(=O)(=O)c1cccc(NC(=O)c2cccnc2Oc2ccccc2)c1 needs its log fold change Tl+ flux filled in; supply it.
0.01

Entry CN(C)CCOc1ccc(/C(=C(/CCCl)c2ccccc2)c2ccccc2)cc1 needs its log fold change Tl+ flux filled in; supply it.
-0.123

Entry CC(C)(S)C(N)C(=O)O (stereo not given) needs its log fold change Tl+ flux filled in; supply it.
-0.0298

Entry Cc1onc(-c2ccccc2)c1C(=O)NC1C(=O)N2C1SC(C)(C)C2C(=O)O (stereo not given) needs its log fold change Tl+ flux filled in; supply it.
0.00981

Entry N#Cc1ccc(NCCc2ccccn2)c([N+](=O)[O-])c1 needs its log fold change Tl+ flux filled in; supply it.
-0.049
